Target: FcγRIIIa (F176) (biotinylated, Acro Biosystems) (UniProt P08637 17-208, biotinylated)
Sequence (P08637 17-208 limits assumed): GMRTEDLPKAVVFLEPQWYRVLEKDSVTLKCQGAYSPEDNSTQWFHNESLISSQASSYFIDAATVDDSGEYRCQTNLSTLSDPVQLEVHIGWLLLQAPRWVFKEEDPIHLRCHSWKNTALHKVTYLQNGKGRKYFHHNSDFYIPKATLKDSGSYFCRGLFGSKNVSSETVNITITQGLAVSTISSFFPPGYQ
Test: BLI, biotinylated FcγR on SA sensor
Reported Endpoint: binding result

H137 (Fc fusion, not shown: hinge; copies: 2 + 2) chain (part 1 of 2): QVQLQESGGGSVQAGGSLKLTCAASGYIFNSCGMGWYRQSPGRERELVSRISGDGDTWHKESVKGRFTISQDNVKKTLYLQMNSLKPEDTAVYFCAVCYNLETYWGQGTQVTVSS chain (part 2 of 2): APEAEGAPSVFLFPPKPKDTLMISRTPEVTCVVVDVSHEDPEVKFNWYVDGVEVHNAKTKPREEQYNSTYRVVSVLTVLHQDWLNGKEYKCKVSNKALPSSIEKTISKAKGQPREPQVYTLPPSREEMTKNQVSLTCLVKGFYPSDIAVEWESNGQPENNYKTTPPVLDSDGSFFLYSKLTVDKSRWQQGNVFSCSVMHEALHNQYTQKSLSLSPG; no binding
D138 (Fc fusion, not shown: hinge; copies: 2 + 2) chain (part 1 of 2): EVQLVESGGGEVQPGGSLRLSCAASGSIFSINAMGWYRQAPGKQRELVAGFTGDTNTIYAESVKGRFTISRDNAKNTVYLQMSSLRAEDTAVYYCAADVQLFSRDYEFYWGQGTLVTVKP chain (part 2 of 2): APEAEGAPSVFLFPPKPKDTLMISRTPEVTCVVVDVSHEDPEVKFNWYVDGVEVHNAKTKPREEQYNSTYRVVSVLTVLHQDWLNGKEYKCKVSNKALPSSIEKTISKAKGQPREPQVYTLPPSREEMTKNQVSLTCLVKGFYPSDIAVEWESNGQPENNYKTTPPVLDSDGSFFLYSKLTVDKSRWQQGNVFSCSVMHEALHNQYTQKSLSLSPG; no binding
